Source listed as ChEMBL document CHEMBL1133640.

# target or test system: Neuropeptide Y receptor type 2 (Homo sapiens, UniProt P49146)
# Sequence (P49146 whole entry): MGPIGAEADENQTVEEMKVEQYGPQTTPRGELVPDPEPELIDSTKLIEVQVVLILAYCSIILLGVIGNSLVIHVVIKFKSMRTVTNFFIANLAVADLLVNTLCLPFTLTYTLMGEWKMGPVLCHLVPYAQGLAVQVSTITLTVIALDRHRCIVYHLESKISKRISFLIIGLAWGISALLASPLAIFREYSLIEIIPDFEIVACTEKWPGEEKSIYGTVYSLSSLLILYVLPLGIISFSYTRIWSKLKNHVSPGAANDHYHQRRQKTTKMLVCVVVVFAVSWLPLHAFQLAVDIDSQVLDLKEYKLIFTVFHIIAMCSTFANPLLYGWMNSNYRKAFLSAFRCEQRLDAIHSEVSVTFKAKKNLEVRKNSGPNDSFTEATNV
# protocol: Affinity against Neuropeptide Y receptor Y2 in SK-N-BE2 cell line
quantity measured: pIC50
Please report pIC50 as the negative decimal logarithm of the molar concentration, giving only the number.

Req: Reported pIC50 for Neuropeptide Y receptor type 2 (Homo sapiens, UniProt P49146), given CC(=O)N[C@@H](C)C(=O)N[C@@H](CO)C(=O)N[C@@H](CC(C)C)C(=O)N[C@@H](CCCN=C(N)N)C(=O)N[C@@H](Cc1c[nH]cn1)C(=O)N[C@@H](Cc1ccc(O)cc1)C(=O)N[C@@H](CC(C)C)C(=O)N[C@@H](CC(N)=O)C(=O)N[C@H](Cc1c[nH]c2ccccc12)C(=O)N[C@H](C(=O)N[C@H](C(=O)N[C@@H](CCCN=C(N)N)C(=O)N[C@@H](CCC(N)=O)C(=O)N[C@@H](CCCN=C(N)N)C(=O)N[C@@H](Cc1ccc(O)cc1)C(N)=O)[C@@H](C)O)C(C)C ?
Resp: 7.25

====

# target or test system: Neuropeptide Y receptor type 2 (Rattus norvegicus)
# protocol: Tested for the affinity for intestinal PYY from rat jejunum by using short circuit current (SCC) method.
quantity measured: IC50 (nM)

1. Ac-ASLRHWLNLVTRQRY-NH2 ... 3.2

(A) Ac-ASLRHYWNLVTRQRY-NH2
(B) Ac-ASWRHYLNLVTRQRY-NH2
(C) Ac-ASLRHYLWLVTRQRY-NH2
Req: Please list the entries, largest IC50 first. List the labels according to the requested ordering.
Resp: C, B, A

====

# target or test system: Neuropeptide Y receptor type 2 (Rattus norvegicus, UniProt Q9ERC0)
# Sequence (Q9ERC0 whole entry): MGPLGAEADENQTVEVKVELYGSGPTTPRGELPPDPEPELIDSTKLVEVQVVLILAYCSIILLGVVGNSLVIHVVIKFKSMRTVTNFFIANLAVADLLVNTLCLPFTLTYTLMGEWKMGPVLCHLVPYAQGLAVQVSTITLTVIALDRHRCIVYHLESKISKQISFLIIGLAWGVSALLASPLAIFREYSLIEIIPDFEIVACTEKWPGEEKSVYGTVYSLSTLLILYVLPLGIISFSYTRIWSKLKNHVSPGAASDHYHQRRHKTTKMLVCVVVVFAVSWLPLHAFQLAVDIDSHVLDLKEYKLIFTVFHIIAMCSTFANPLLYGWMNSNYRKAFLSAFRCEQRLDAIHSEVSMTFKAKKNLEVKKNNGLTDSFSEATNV
# protocol: Antisecretory potency, affinity for intestinal PYY of rat jejunum by using short circuit current (SCC) method.
# Assay type: tissue-based
Where a SMILES comes first, the peptide text is derived from it. The star is where a group is joined. X1 = C[C@@H](O)[C@@H](CN[C@@H](CCCN=C(N)N)C(=O)N[C@@H](CCC(N)=O)C(=O)N[C@@H](CCCN=C(N)N)C(=O)N[C@@H](Cc1ccc(O)cc1)C(N)=O)N*; Argψ(CH2NH)TyrNH2 = N=C(N)NCCC[C@@H](CN[C@@H](Cc1ccc(O)cc1)C(N)=O)N*
# pIC50 annotations
Please report pIC50 as the negative decimal logarithm of the molar concentration, giving only the number.

1. CC(=O)N[C@@H](C)C(=O)N[C@@H](CO)C(=O)N[C@@H](CC(C)C)C(=O)N[C@@H](CCCN=C(N)N)C(=O)N[C@@H](Cc1c[nH]cn1)C(=O)N[C@@H](Cc1ccc(O)cc1)C(=O)N[C@@H](CC(C)C)C(=O)N[C@@H](CC(N)=O)C(=O)N[C@@H](CC(C)C)C(=O)N[C@H](C(=O)N[C@H](CN[C@@H](CCCN=C(N)N)C(=O)N[C@@H](CCC(N)=O)C(=O)N[C@@H](CCCN=C(N)N)C(=O)N[C@@H](Cc1ccc(O)cc1)C(N)=O)[C@@H](C)O)C(C)C (Ac-ASLRHYLNLV-X1) ... 8.30

Req: Reported pIC50 for Neuropeptide Y receptor type 2 (Rattus norvegicus, UniProt Q9ERC0), given CC(=O)N[C@@H](C)C(=O)N[C@@H](CO)C(=O)N[C@@H](CC(C)C)C(=O)N[C@@H](CCCN=C(N)N)C(=O)N[C@@H](Cc1c[nH]cn1)C(=O)N[C@@H](Cc1ccc(O)cc1)C(=O)N[C@@H](CC(C)C)C(=O)N[C@@H](CC(N)=O)C(=O)N[C@@H](CC(C)C)C(=O)N[C@H](C(=O)N[C@H](C(=O)N[C@@H](CCCN=C(N)N)C(=O)N[C@@H](CCC(N)=O)C(=O)N[C@@H](CCCN=C(N)N)CN[C@@H](Cc1ccc(O)cc1)C(N)=O)[C@@H](C)O)C(C)C (Ac-ASLRHYLNLVTRQ-{Argψ(CH2NH)TyrNH2}) ?
Resp: 10.30
